- target_or_test_system: T1, GST-MUPP1 PDZ domain 10 (Homo sapiens (Human)), O75970
- T1 chain: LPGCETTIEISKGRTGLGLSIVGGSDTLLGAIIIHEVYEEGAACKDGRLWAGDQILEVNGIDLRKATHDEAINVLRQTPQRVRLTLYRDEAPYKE
- protocol_details: G' assay; further: key of the grades not given here
readout_type: Classification (A450 class)
API: value field is a number in A450 class; no unit string.

binder="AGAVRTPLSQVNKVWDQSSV (modifications not checked) [CITRON protein]" result_value=1
binder="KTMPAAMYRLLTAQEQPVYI (modifications not checked) [MINT-1]" result_value=1
binder="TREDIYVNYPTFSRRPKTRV (modifications not checked) [DNAM-1]" result_value=4
binder="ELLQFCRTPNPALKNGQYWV (modifications not checked) [CSPG4 (chondroitin sulfae proteoglycan 4, melanoma-associated)]" result_value=4
binder="INSVGSTASSSQPLLVHDDV (modifications not checked) [c-kit receptor]" result_value=1

Turning now to a further binder:
Query: # lookup: Classification of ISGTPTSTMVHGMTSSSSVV (modifications not checked) [Clasp-2]
Response: 1
